System: P. aeruginosa PAO397
Assay: Broth microdilution MIC, P. aeruginosa PAO397
Type: cell-based
Details: Pseudomonas aeruginosa, PAO397, 18 h, read-out: PAO397 KO MIC
Protocol: Exemplary compounds from the above Examples were tested to determine their minimum inhibitory concentration (MIC) for exemplary strains of Escherichia and Pseudomonas bacteria using broth microdilution methods. Assay procedures and results are described below. […]
Please provide measured MIC for the entries that follow.

For the compound shown here, `N#Cc1ccc(CN(Cc2nnc(N)o2)C(=O)COc2cccc(Cl)c2)c(F)c1` , give the reported MIC.
1 to 16 mg/L

Try this compound next: `N#Cc1ccc(CN(CC(=O)NC2COC2)C(=O)CSc2ccccc2Cl)cc1`
1 to 16 mg/L

Try this compound next: `N#Cc1ccc(CN(Cc2nnc(N)o2)C(=O)COc2ccccc2Br)cc1`
< 1 mg/L

Try this compound next: `CC(C)c1ccccc1OCC(=O)N(Cc1ccc(C#N)cc1)Cc1nnc(N)o1`
1 to 16 mg/L

Try this compound next: `N#Cc1ccc(CN(Cc2nnc(O)o2)C(=O)CSc2ccccc2Cl)cc1`
< 1 mg/L
